Values were extracted from patent US20080058636A1.

biological target: rat collagen (acid soluble, type I, rat tail, Upstate 08-115) (rat) (UniProt P02454); assay: dried collagen assay
Sequence (P02454 152-1207, chain 1 of 2): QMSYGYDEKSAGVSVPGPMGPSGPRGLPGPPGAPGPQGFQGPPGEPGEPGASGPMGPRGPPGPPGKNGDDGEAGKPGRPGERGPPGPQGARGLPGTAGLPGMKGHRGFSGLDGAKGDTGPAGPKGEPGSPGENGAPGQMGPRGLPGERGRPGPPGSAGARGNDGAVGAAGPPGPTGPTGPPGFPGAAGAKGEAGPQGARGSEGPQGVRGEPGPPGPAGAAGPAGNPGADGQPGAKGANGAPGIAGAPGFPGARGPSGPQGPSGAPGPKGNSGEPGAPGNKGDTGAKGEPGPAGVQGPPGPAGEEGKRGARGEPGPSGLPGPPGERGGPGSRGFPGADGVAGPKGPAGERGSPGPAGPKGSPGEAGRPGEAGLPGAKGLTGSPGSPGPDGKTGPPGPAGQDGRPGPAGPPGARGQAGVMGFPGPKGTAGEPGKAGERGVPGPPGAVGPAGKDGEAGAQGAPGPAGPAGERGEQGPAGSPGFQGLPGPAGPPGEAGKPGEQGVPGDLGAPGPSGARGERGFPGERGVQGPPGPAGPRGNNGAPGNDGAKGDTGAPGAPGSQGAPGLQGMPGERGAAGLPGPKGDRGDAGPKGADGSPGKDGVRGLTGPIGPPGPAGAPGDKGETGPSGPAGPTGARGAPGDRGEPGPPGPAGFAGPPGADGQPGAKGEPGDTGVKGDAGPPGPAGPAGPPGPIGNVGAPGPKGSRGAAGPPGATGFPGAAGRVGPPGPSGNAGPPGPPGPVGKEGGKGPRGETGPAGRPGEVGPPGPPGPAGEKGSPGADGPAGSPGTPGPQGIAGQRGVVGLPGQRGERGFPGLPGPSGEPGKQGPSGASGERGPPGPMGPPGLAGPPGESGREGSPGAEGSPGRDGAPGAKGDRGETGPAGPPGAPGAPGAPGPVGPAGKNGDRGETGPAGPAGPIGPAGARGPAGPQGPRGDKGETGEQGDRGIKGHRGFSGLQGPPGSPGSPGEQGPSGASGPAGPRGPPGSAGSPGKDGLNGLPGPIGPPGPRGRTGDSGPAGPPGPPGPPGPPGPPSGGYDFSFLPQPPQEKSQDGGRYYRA
Sequence (P02466 86-1125, chain 2 of 2, further chain): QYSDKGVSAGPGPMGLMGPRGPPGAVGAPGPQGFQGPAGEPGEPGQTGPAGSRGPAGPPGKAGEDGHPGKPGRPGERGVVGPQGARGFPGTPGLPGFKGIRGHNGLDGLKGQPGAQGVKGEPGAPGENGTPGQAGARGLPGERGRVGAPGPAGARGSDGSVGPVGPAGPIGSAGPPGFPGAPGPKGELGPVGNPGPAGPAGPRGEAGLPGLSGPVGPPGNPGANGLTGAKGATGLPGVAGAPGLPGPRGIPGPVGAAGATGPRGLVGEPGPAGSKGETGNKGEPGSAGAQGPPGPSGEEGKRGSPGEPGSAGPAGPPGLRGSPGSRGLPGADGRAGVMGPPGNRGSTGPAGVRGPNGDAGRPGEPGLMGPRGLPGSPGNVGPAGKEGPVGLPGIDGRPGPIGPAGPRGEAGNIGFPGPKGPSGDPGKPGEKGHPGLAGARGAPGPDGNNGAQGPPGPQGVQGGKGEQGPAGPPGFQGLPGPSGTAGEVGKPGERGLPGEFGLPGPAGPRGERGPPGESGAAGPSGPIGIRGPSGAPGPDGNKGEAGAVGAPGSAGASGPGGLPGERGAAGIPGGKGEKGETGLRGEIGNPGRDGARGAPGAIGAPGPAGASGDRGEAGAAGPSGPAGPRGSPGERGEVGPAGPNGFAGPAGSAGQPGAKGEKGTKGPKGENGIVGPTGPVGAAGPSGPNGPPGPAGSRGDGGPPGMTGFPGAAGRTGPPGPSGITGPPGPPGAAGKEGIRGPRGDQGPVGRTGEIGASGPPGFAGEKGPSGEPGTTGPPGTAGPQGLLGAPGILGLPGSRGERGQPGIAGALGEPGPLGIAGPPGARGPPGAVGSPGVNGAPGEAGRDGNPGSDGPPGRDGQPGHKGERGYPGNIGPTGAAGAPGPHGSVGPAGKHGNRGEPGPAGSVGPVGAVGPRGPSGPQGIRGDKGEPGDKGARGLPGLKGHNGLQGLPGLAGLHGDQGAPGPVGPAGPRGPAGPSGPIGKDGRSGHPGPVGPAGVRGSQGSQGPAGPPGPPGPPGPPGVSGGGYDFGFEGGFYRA
Bridge positions count the residues as written; N and C are the ends. Square brackets hold non-standard residues; d marks the D form. Ends that are not written are not given here.
Experimental endpoint: % Collagen Binding (%)
// return numeric value only (unit: %, not printed)

Reported % Collagen Binding for GQWTCSGDE[dY]TWHCNYE (disulfide 5-14 (inferred); not fully specified (C-terminus); printed as Q W T C S G D E y T W H C N Y E) [SEQ ID NO: 171] : what is it?
6

Recorded % Collagen Binding for GQWTCSG[dD]EYTWHCNYE (disulfide 5-14 (inferred)) [SEQ ID NO: 169] , please?
4

Requested field: % Collagen Binding. Item: GQWTCSGDEYTW[dH]CNYE (disulfide 5-14 (inferred); not fully specified (C-terminus); printed as Q W T C S G D E Y T W h C N Y E) [SEQ ID NO: 174]
0

Sample GQWT[dC]SGDEYTWHCNYE (disulfide 5-14 (inferred)) [SEQ ID NO: 167] — what was its % Collagen Binding?
0

Data request, read-out % Collagen Binding, for GQWTCSGDEYSWHCNY[dE] (disulfide 5-14 (inferred)) [SEQ ID NO: 125]
86

Which % Collagen Binding is listed for DWTCSYDEYTWHCNYE [SEQ ID NO: 182] ?
86

Please look up its % Collagen Binding: GQWTCSGDEY[dA]WHCNA[dE] (disulfide 5-14 (inferred)) [SEQ ID NO: 124]
17

Bench note: what % Collagen Binding did DWTCSGDEYAWHCNYE [SEQ ID NO: 120] show?
28

GET /values?readout=% Collagen Binding&item= DWTCSRDEYTWHCNYE [SEQ ID NO: 181]
86

Given the entry PWTCSGDEYAWHCNYE [SEQ ID NO: 121] , report its measured % Collagen Binding.
72

Suppose we examine the binder GQWTCSGDEYAWHCNY[dE] (disulfide 5-14 (inferred)) [SEQ ID NO: 126] ; what % Collagen Binding value has been reported?
73

// % Collagen Binding lookup, key: GQWTCSGDEYTWHCN[dY]E (disulfide 5-14 (inferred); not fully specified (C-terminus); printed as Q W T C S G D E Y T W H C N y E) [SEQ ID NO: 177]
27
